targetOrTestSystem: T1, human GM-CSFRα, full length on cells (human, UniProt P15509 23-400)
T1 sequence: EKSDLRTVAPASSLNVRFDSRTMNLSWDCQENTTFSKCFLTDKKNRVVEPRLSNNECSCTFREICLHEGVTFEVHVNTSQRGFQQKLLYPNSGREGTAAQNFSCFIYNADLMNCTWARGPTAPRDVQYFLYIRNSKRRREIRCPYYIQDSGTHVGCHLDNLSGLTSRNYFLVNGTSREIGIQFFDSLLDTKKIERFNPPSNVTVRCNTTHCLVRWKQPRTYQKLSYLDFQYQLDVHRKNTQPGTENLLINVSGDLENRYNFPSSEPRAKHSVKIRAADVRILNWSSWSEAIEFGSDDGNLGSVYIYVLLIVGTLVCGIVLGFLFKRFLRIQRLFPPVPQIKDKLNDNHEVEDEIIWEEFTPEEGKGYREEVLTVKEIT
method: cell-based or functional assay
Recorded IC50, TF-1 cell proliferation, one value per entry.
measurementType: IC50, TF-1 cell proliferation (µg/mL)

{"columns": ["binder", "resultNumber"],
 "data": [
  ["E35-scFv HE31M (scFv, V domains shown) VH: QMQLVQSGAEVKKPGASVKVSCKVSGYTLTMLSIHWVRQAPGKGLEWMGGFDPEDGETIYAQKFQGRVTMTGDTSTDTAYLELSSLRSEDTALYYCATGRYTSLATTYGFDYWGQGTLVTVSS VL: EIVMTQSPATLSLSPGERATLSCRASQSVSSYLAWYQQKPGQAPRLLIYGASSRATGIPDRFSGSGSGTDFTLTISRLEPEDFAVYYCQQYDNWPYTFGQGTKLEIK", 0.13],
  ["E35-scFv LD92L (scFv, V domains shown) VH: QMQLVQSGAEVKKPGASVKVSCKVSGYTLTELSIHWVRQAPGKGLEWMGGFDPEDGETIYAQKFQGRVTMTGDTSTDTAYLELSSLRSEDTALYYCATGRYTSLATTYGFDYWGQGTLVTVSS VL: EIVMTQSPATLSLSPGERATLSCRASQSVSSYLAWYQQKPGQAPRLLIYGASSRATGIPDRFSGSGSGTDFTLTISRLEPEDFAVYYCQQYLNWPYTFGQGTKLEIK", 0.42],
  ["E35-scFv HT28H (scFv, V domains shown) VH: QMQLVQSGAEVKKPGASVKVSCKVSGYHLTELSIHWVRQAPGKGLEWMGGFDPEDGETIYAQKFQGRVTMTGDTSTDTAYLELSSLRSEDTALYYCATGRYTSLATTYGFDYWGQGTLVTVSS VL: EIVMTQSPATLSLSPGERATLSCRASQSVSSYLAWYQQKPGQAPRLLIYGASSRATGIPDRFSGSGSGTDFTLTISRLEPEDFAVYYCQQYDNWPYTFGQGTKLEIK", 0.06]
]}
